STUDY SYSTEM: T1, CD3E (human, UniProt P07766 23-126)
T1 construct: Recombinant human protein in ELISA
T1 sequence (P07766 23-126 limits assumed): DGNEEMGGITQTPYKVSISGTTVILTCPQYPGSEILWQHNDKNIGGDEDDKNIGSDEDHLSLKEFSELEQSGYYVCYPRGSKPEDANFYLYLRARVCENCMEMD
EXPERIMENT NOTES: ELISA, plate-coated recombinant human protein, nanobody-Fc
Listing of recorded EC50 by entry.
# number only, unit nM dropped from output

Field: example entries. Status: answers known.
[
  {
    "BINDER": "CD3E_Nb2.79 (Fc fusion, Nanobody expressed and tested as Fc fusion (human IgG1); not shown: human IgG1 Fc (vector pCER243)) QVQLQESGGGLVQAGGSLRLSCAASGTISPWRVMGWYRQAPGKEREFVAGITPGTTTYYADSVKGRFTISRDNAKNTVYLQMNSLKPEDTAVYYCAVSAGASTPARYRLVYWGQGTQVTVSS",
    "UNIT STRING": "nM",
    "MEASURED RESULT": 0.579
  },
  {
    "BINDER": "CD3E_Nb2.80 (Fc fusion, Nanobody expressed and tested as Fc fusion (human IgG1); not shown: human IgG1 Fc (vector pCER243)) QVQLQESGGGLVQAGGSLRLSCAASGNISRRYVMGWYRQAPGKEREFVAGISGGSSTYYADSVKGRFTISRDNAKNTVYLQMNSLKPEDTAVYYCAVLISGNTPNAISHYYWGQGTQVTVSS",
    "UNIT STRING": "nM",
    "MEASURED RESULT": 17.9
  },
  {
    "BINDER": "CD3E_Nb2.74 (Fc fusion, Nanobody expressed and tested as Fc fusion (human IgG1); not shown: human IgG1 Fc (vector pCER243)) QVQLQESGGGLVQAGGSLRLSCAASGTIFYASVMGWYRQAPGKEREFVAGITPGGSTNYADSVKGRFTISRDNAKNTVYLQMNSLKPEDTAVYYCAVYYRYSEGRIGGHAYWGQGTQVTVSS",
    "UNIT STRING": "nM",
    "MEASURED RESULT": 1.2
  },
  {
    "BINDER": "CD3E_Nb2.76 (Fc fusion, Nanobody expressed and tested as Fc fusion (human IgG1); not shown: human IgG1 Fc (vector pCER243)) QVQLQESGGGLVQAGGSLRLSCAASGNIFGNVVMGWYRQAPGKEREFVAGINNGGSTNYADSVKGRFTISRDNAKNTVYLQMNSLKPEDTAVYYCAVYYYYLTYHLYWGQGTQVTVSS",
    "UNIT STRING": "nM",
    "MEASURED RESULT": 16.1
  },
  {
    "BINDER": "CD3E_Nb2.77 (Fc fusion, Nanobody expressed and tested as Fc fusion (human IgG1); not shown: human IgG1 Fc (vector pCER243)) QVQLQESGGGLVQAGGSLRLSCAASGSISPVAVMGWYRQAPGKEREFVAAINYGANTYYADSVKGRFTISRDNAKNTVYLQMNSLKPEDTAVYYCAAATYAPYQRSGKLVYWGQGTQVTVSS",
    "UNIT STRING": "nM",
    "MEASURED RESULT": 0.67
  }
]

Quick check: EC50 of CD3E_Nb2.73 (Fc fusion, Nanobody expressed and tested as Fc fusion (human IgG1); not shown: human IgG1 Fc (vector pCER243)) QVQLQESGGGLVQAGGSLRLSCAASGNISDITVMGWYRQAPGKEREFVAGINYGGSTNYADSVKGRFTISRDNAKNTVYLQMNSLKPEDTAVYYCAARYRYRYSAREFHDYWGQGTQVTVSS ?
0.735
